Ref: patent US20240116985A1

Measurement Protocol: Solubility in PBS
Assay type: physicochemical
Measured Attribute: Solubility (µM)
Give bare numbers, in µM.

Molecule	Result Unit	Solubility
CC(=O)N1CCC[C@]12CC=CCCCC1(CCCC=CCCCCCC[C@@](C)(C(=O)N[C@@H](Cc3ccccc3)C(=O)N[C@@H](Cc3csc4ccccc34)C(=O)N[C@@H](CCC(N)=O)C(N)=O)NC(=O)[C@H](CCC(N)=O)NC(=O)[C@H](Cc3cccc(C(F)(F)F)c3)NC(=O)[C@H](C)NC(=O)[C@H](C)NC(=O)[C@H](CC(=O)O)NC(=O)[C@H](CC(=O)O)NC1=O)NC(=O)[C@H](C)NC(=O)[C@H](CC(=O)O)NC2=O (stereo partly drawn) [I-380]	µM	49
CC(=O)N1CCC[C@]12CC=CCCCC1(CCCC=CCCCCCC[C@@](C)(C(=O)N[C@@H](Cc3ccccc3)C(=O)N[C@@H](Cc3c[nH]c4ccccc34)C(=O)N[C@@H](CCC(N)=O)C(N)=O)NC(=O)[C@H](C)NC(=O)[C@H](Cc3ccccc3)NC(=O)[C@H](C)NC(=O)[C@H](C)NC(=O)[C@H](CC(=O)O)NC(=O)[C@H](CC(=O)O)NC1=O)NC(=O)[C@H](C)NC(=O)[C@H](CC(=O)O)NC2=O (stereo partly drawn)	µM	32

Dear colleague, I am looking for the recorded Solubility of the following molecule: CC(=O)N1CCC[C@]12CC=CCCCC1(CCCC=CCCCOC(=O)N3CC[C@@](C(=O)N[C@@H](Cc4ccccc4Cl)C(=O)N[C@@H](Cc4csc5ccccc45)C(=O)N[C@@H](CCC(N)=O)C(N)=O)(C3)NC(=O)[C@H](Cc3ccccc3)NC(=O)[C@H](Cc3ccccc3)NC(=O)[C@H](C)NC(=O)[C@H](C)NC(=O)[C@H](CC(=O)O)NC(=O)[C@H](CC(=O)O)NC1=O)NC(=O)[C@H](CC(C)(C)C)NC(=O)[C@H](CC(=O)O)NC2=O (stereo partly drawn) 10

###

Target: full-length beta-Catenin (Uniprot ID P35222) (Homo sapiens, UniProt P35222)
Construct: 10 nM full-length beta-Catenin (Uniprot ID P35222)
Sequence (P35222 whole entry): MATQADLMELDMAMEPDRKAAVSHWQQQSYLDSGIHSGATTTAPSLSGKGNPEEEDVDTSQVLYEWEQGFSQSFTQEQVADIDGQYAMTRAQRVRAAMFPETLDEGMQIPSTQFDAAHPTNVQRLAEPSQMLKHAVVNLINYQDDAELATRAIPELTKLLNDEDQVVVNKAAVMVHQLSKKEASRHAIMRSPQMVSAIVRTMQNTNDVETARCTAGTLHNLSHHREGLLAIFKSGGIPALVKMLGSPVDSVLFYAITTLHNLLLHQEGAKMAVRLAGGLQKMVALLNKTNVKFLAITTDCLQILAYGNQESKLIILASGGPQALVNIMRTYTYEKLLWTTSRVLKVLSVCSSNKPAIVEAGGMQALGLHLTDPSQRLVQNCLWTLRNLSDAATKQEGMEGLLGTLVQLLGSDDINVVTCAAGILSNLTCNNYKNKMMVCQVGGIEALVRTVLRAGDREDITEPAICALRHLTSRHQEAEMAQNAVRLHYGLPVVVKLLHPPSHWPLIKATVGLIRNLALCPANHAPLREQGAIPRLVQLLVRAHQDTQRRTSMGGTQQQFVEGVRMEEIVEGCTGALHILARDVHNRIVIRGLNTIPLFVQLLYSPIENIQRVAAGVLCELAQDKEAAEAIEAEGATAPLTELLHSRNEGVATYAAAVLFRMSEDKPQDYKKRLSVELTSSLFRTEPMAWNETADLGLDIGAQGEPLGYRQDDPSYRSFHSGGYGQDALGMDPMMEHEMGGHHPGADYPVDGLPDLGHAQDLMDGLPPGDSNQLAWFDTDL
Measurement Protocol: Fluorescence polarization IC50 (beta-catenin / 5FAM-TCF4 10-53 competition)
Assay type: binding
Condition Parameters: read-out: FP EC50
Kindly supply the reported IC50 values for the records listed here.
Answers are plain numbers, in nM.

Solved entries (count: 2):
Compound	IC50, nM
CC(=O)N1CCC[C@]12CC=CCCCC1(CCCC=CCCCCCC[C@@](C)(C(=O)N[C@@H](CCc3ccccc3)C(=O)N[C@@H](Cc3csc4ccccc34)C(=O)N[C@@H](CCC(N)=O)C(N)=O)NC(=O)[C@H](CC(N)=O)NC(=O)[C@H](Cc3ccccc3)NC(=O)[C@H](C)NC(=O)[C@H](C)NC(=O)[C@H](CCC(=O)O)NC(=O)[C@H](CC(=O)O)NC1=O)NC(=O)[C@H](C)NC(=O)[C@H](CC(=O)O)NC2=O (stereo partly drawn) [I-443]	2130
CC(=O)N1CCC[C@]12CC=CCCCC1(CCCC=CCCCCCC[C@@](C)(C(=O)N[C@@H](Cc3ccccc3)C(=O)N[C@@H](Cc3csc4ccccc34)C(=O)N[C@@H](Cc3cn(C)cn3)C(N)=O)NC(=O)[C@H](CC(N)=O)NC(=O)[C@H](Cc3ccccc3)NC(=O)[C@H](C)NC(=O)[C@H](C)NC(=O)[C@H](CCC(=O)O)NC(=O)[C@H](CC(=O)O)NC1=O)NC(=O)[C@H](C)NC(=O)[C@H](CC(=O)O)NC2=O (stereo partly drawn) [I-478]	71

Now, please, on to the next compound.
Any idea what IC50 was measured for CC(=O)N1CCC[C@]12CC=CCCCC1(CCCC=CCCCOC(=O)N3CC[C@@](C(=O)N[C@@H](Cc4ccccc4)C(=O)N[C@@H](Cc4csc5ccccc45)C(=O)N[C@@H](CCC(N)=O)C(N)=O)(C3)NC(=O)[C@H](CC(N)=O)NC(=O)[C@H](Cc3ccccc3)NC(=O)[C@H](C)NC(=O)[C@H](C)NC(=O)[C@H](CCC(=O)O)NC(=O)[C@H](CC(=O)O)NC1=O)NC(=O)[C@H](CC(C)(C)C)NC(=O)[C@H](CC(=O)O)NC2=O (stereo partly drawn) [I-684] ? 15

###

Target: full-length beta-Catenin (Uniprot ID P35222) (Homo sapiens)
Construct: 10 nM full-length beta-Catenin (Uniprot ID P35222)
Measurement Protocol: Fluorescence polarization IC50 (beta-catenin / 5FAM-TCF4 10-53 competition)
Format: binding
Condition Parameters: fluorescence polarization, beta-catenin; read-out: FP EC50
Measured Attribute: IC50
State the value with its unit after it.

As a guide, the following entries are already answered.
Compound	Target	IC50
CC(=O)N1CCC[C@]12CC=CCCCC1(CCCC=CCCCOC(=O)N3CC[C@@](C(=O)N[C@@H](Cc4ccsc4)C(=O)N[C@@H](Cc4csc5ccccc45)C(=O)N[C@@H](CCC(N)=O)C(N)=O)(C3)NC(=O)[C@H]([C@@H](C)O)NC(=O)[C@H](Cc3ccccc3)NC(=O)[C@H](C)NC(=O)[C@H](C)NC(=O)[C@H](Cc3cccc(C(=O)O)c3)NC(=O)[C@H](CC(=O)O)NC1=O)NC(=O)[C@H](CC(C)(C)C)NC(=O)[C@H](CC(=O)O)NC2=O (stereo partly drawn) [I-980]	full-length beta-Catenin (Uniprot ID P35222) (Homo sapiens)	221 nM
CC(=O)N1CCC[C@]12CC=CCCCC1(CCCC=CCCCOC(=O)N3CC[C@@](C(=O)N[C@@H](Cc4ccccc4Cl)C(=O)N[C@@H](Cc4csc5ccccc45)C(=O)N[C@@H](CO)C(N)=O)(C3)NC(=O)[C@H](CC(C)C)NC(=O)[C@H](Cc3ccccc3)NC(=O)[C@H](C)NC(=O)[C@H](C)NC(=O)[C@H](CC(=O)O)NC(=O)[C@H](CC(=O)O)NC1=O)NC(=O)[C@H](CC(C)(C)C)NC(=O)[C@H](CC(=O)O)NC2=O (stereo partly drawn) [I-1064]	full-length beta-Catenin (Uniprot ID P35222) (Homo sapiens)	414 nM

Quick one: IC50 of CC(=O)N1CCC[C@]12CC=CCCCC1(CCCC=CCCCOC(=O)N3CC[C@@](C(=O)N[C@@H](Cc4ccccc4Cl)C(=O)N[C@@H](Cc4csc5ccccc45)C(=O)N[C@@H](CO)C(N)=O)(C3)NC(=O)[C@H](CC(C)C)NC(=O)[C@H](Cc3ccccc3)NC(=O)[C@H](C)NC(=O)[C@H](C)NC(=O)[C@H](CC(=O)O)NC(=O)[C@H](CC(=O)O)NC1=O)NC(=O)[C@H](CC(C)(C)C)NC(=O)[C@H](CC(=O)O)NC2=O (stereo partly drawn) [I-1065] ? 520 nM

###

Target: full-length beta-Catenin (Uniprot ID P35222) (Homo sapiens, UniProt P35222)
Construct: 10 nM full-length beta-Catenin (Uniprot ID P35222)
Measurement Protocol: Fluorescence polarization IC50 (beta-catenin / 5FAM-TCF4 10-53 competition)
Assay type: binding
Condition Parameters: fluorescence polarization; read-out: beta-Catenin FP IC50
Could you please report measured IC50 for the items listed next?
Answers are plain numbers, in µM.

Compound	Value Observed
CC(=O)N1CCC[C@H]1C(=O)N[C@@H](CC(=O)O)C(=O)N[C@@H](CC1CCCCC1)C(=O)N[C@]1(C)CCCC=CCCCOC(=O)N2CC[C@@](C(=O)N[C@@H](Cc3ccccc3Cl)C(=O)N[C@@H](Cc3csc4ccccc34)C(=O)N[C@@H](CO)C(N)=O)(C2)NC(=O)[C@H]([C@@H](C)O)NC(=O)[C@H](Cc2ccccc2)NC(=O)[C@H](C)NC(=O)[C@H](C)NC(=O)[C@H](CC(=O)O)NC(=O)[C@H](CC(=O)O)NC1=O [I-1184]	0.176

Let's switch to this compound now.
Look up IC50: CC(=O)N1CCC[C@]12CC=CCCCC1(CCCC=CCCCOC(=O)N3CC[C@@](C(=O)N[C@@H](CC4CCCCC4)C(=O)N[C@@H](Cc4csc5ccccc45)C(=O)N[C@@H](CCC(N)=O)C(N)=O)(C3)NC(=O)[C@H](CC(C)C)NC(=O)[C@H](Cc3ccccc3)NC(=O)[C@H](C)NC(=O)[C@H](CCCCNC(C)C)NC(=O)[C@H](CCC(N)=O)NC(=O)[C@H](CC(=O)O)NC1=O)NC(=O)[C@H](CC(C)(C)C)NC(=O)[C@H](CC(N)=O)NC2=O (some centres unmarked) [I-1651] 3.97

###

Measurement Protocol: CHI Log D procedure
Assay type: physicochemical
Condition Parameters: pH 7.4, CHI Log D
Kindly supply the reported chromatographic logD values for the records listed here.
Answers are plain numbers.

Compound	chromatographic logD
CC(=O)N1CCC[C@]12CC=CCCCC1(CCCC=CCCCOC(=O)N3CC[C@@](C(=O)N[C@@H](Cc4ccccc4Cl)C(=O)N[C@@H](Cc4csc5ccccc45)C(=O)N[C@@H](CCC(N)=O)C(N)=O)(C3)NC(=O)[C@H](CC(N)=O)NC(=O)[C@H](Cc3ccccc3)NC(=O)[C@H](C)NC(=O)[C@H](C)NC(=O)[C@H](CC(=O)O)NC(=O)[C@H](CC(=O)O)NC1=O)NC(=O)[C@H](CC(C)(C)C)NC(=O)[C@H](CC(=O)O)NC2=O (some centres unmarked)	2.19

Now examine the next entry.
Returns the measured chromatographic logD for the input compound. Input: CC(=O)N1CCC[C@]12CC=CCCCC1(CCCC=CCCCCCC[C@@](C)(C(=O)N[C@@H](Cc3ccccc3)C(=O)N[C@@H](Cc3c[nH]c4ccccc34)C(=O)N[C@@H](CCC(N)=O)C(N)=O)NC(=O)[C@H](C(C)C)NC(=O)[C@H](Cc3ccccc3)NC(=O)[C@H](C)NC(=O)[C@H](C)NC(=O)[C@H](CCC(=O)O)NC(=O)[C@H](CC(N)=O)NC1=O)NC(=O)[C@H](C)NC(=O)[C@H](CC(=O)O)NC2=O (some centres unmarked) 2.37
